- EXPERIMENTAL_SYSTEM: human CCR8 (human, UniProt P51685 1-355)
- ASSAY_SUMMARY: cell-based or functional assay
REPORTED_ENDPOINT: hCCL1 (100 nM) residual response, Protocol #3, mAb 0.05 µg/mL (%)

- 3-76 (antibody, human IgG1, kappa, V domains shown, humanized, human IgG1 kappa) VH: EVQLVESGGGLVQPGRSLRLSCTASGFTFNTYAMNWVRQAPGKGLEWVARIRSKSNNYATYYAASVKGRFTISRDDSKSIAYLQMNSLKTEDTAVYYCVRGREAYYRYDGGYYAMDVWGQGTTVTVSS VL: DIVMTQAAPSLPVTPGESASISCRSSKSLLHSNGNTYLYWFLQKPGQSPQLLIYRMSNLASGVPDRFSGSGSGTAFTLKISRVEAEDVGVYYCMQHLEYPFTFGSGTKLEIKR: 88
- 3-13 (antibody, V domains shown) VH: KVQLQQSGPELVKPGASVKISCKTSGYTFTEYTIHWVQQIHGKSPEWIGGINPNGDTRYDQKFKGKATLTIDKSSSTAYMELRSLTSEDSAVYYCARVARFYGISPYAMDYWGQGTSVTVSS VL: DVVMTQTPLSLPVSLGDQASISCRCTQSLLHSNGDTYLHWYLQKPGQSPNLLIYKVSNRFSGVPDRFSGSGSGTDFTLKINRVEAEDLGVYFCSQSTHVPYTFGGGTNLEIK: 92
- 3-14 (antibody, V domains shown) VH: EVQLVESGGGLVQPTGSLRLSCAASGFTFNAYAMNWVRQAPGKGLEWVARIRSKSNDYATYYGDSVKDRFTISRDDSQSMLYLQMNNLKTEDTAMYYCVRGREAYYRYDGGYYAMDYWGQGTSVTVSS VL: DIVMTQAAPSVSVTPGESVSISCTSSKSLLHSNGNTYLYWFLQRPGQSPQLLIYRMSNLASGVPDRFSGSGSGTAFTLRISRVEAEDVGVYYCMQHREYPFTFGSGTKLEIK: 75
- 3-28 (antibody, V domains shown) VH: EVQLQQSGPELLKPGTSVKISCTTSGYTFSDYTLHWVKQSHGKSLEWIGGITPKNGDTRYDPRFKDKATLTIDKSSSAAYMELRSLTSEDSAVYYCARVARFYGVSPYAMDYWGQGASVTVSS VL: DVVMTQTPLSLPVSLGDQASISCRCTQSLLHSNGDTYLHWYLQKPGQSPKLLIYKVSNRFSGVPDRFSGSGSGTDFTLEITRVEAEDLGVYFCSQTTHVPYTFGGGTKLEIK: 102
- 3-50 (antibody, V domains shown) VH: EVQLQQSGPELVKPGASVKISCKASVYSFTGSYMHWVKQSHVKSLEWIGRINPYNGATSYNQNFKDKASLTVDKSSSTAYMELHSLTSEDSAVYYCATTLLRLLDYWGQGTTLTVSS VL: DIVMTQAAFSNPVTLGTSASISCRSSKSLLHSNGITYLYWYLQKPGQSPQLLIYQMSNLASGVPDRFSSSGSGTDFTLRISRVEAEDVGVYYCAQNLELPWTFGGGTKLEIK: 96

Origin of the recorded values: patent US20260234276A1
